Test: Terpene oxidation with ascorbic acid or EDTA at 40° C.
Format: physicochemical
Conditions: 10 ppm EDTA
From the text: However, nearly all terpenes can be oxidized and some can oxidize faster than others. When terpenes are put into a ready-to-drink beverage, the chemical degradation that can be caused by oxidation needs to be considered. When the oxidation happens, it not only diminishes the designed effect of the product, but it also creates unknown by-products that can be potentially harmful to consume. Oxidation rate of α-pinene and limonene was compared with the addition of ascorbic acid and EDTA.

[
  {
    "compound": "C=CC(C)(O)CCC=C(C)C (stereo not shown)",
    "reading.unit": "%",
    "2-weeks potency loss at 40° C.": 9
  },
  {
    "compound": "C=C(C)[C@H]1CC=C(C)CC1",
    "reading.unit": "%",
    "2-weeks potency loss at 40° C.": 8
  },
  {
    "compound": "C=CC(=C)CCC=C(C)C",
    "reading.unit": "%",
    "2-weeks potency loss at 40° C.": 6
  },
  {
    "compound": "CC1=CCC2CC1C2(C)C (stereo not shown)",
    "reading.unit": "%",
    "2-weeks potency loss at 40° C.": 6
  }
]

Entry source: patent US12568982B2
